Source: paper PMC10285260

Biological target: human P450 51A1 (Homo sapiens)
Assay: Single-turnover rapid-quench kinetics of [3-3H]-dihydrolanosterol oxidation (radio-HPLC)
Type: biochemical
Parameters: made in house; host or cells: Escherichia coli
Settings: time 0.15 s
Each item that follows carries a reported concentration in single-turnover reaction.
quantity-kind: concentration in single-turnover reaction

molecule="CC(C)CCCC(C)[C@H]1CC[C@@]2(C)C3=C(CC[C@]12C)[C@@]1(C)CC[C@H](O)C(C)(C)C1CC3 (stereo partly shown) [dihydrolanosterol, 24,25-dihydrolanosterol]" value_reported="2.8308 µM"
molecule="CC(C)CCC[C@@H](C)[C@H]1CC=C2C3=C(CC[C@@]21C)[C@@]1(C)CC[C@H](O)C(C)(C)[C@@H]1CC3 [dihydro FF-MAS, 24,25-dihydro FF-MAS]" value_reported="0.2821 µM"
molecule="CC(C)CCCC(C)[C@H]1CC[C@@]2(CO)C3=C(CC[C@]12C)[C@@]1(C)CC[C@H](O)C(C)(C)C1CC3 (stereo partly drawn) [14α-CH2OH dihydrolanosterol, 24,25-dihydro-14α-CH2OH lanosterol]" value_reported="2.7482 µM"
molecule="CC(C)CCCC(C)[C@H]1CC[C@@]2(C=O)C3=C(CC[C@]12C)[C@@]1(C)CC[C@H](O)C(C)(C)C1CC3 (stereo partly drawn) [14α-CHO dihydrolanosterol, 24,25-dihydro-14α-formyl lanosterol]" value_reported="1.1396 µM"

----------
Target: human P450 51A1 (Homo sapiens)
Sequence (Q16850 1-509): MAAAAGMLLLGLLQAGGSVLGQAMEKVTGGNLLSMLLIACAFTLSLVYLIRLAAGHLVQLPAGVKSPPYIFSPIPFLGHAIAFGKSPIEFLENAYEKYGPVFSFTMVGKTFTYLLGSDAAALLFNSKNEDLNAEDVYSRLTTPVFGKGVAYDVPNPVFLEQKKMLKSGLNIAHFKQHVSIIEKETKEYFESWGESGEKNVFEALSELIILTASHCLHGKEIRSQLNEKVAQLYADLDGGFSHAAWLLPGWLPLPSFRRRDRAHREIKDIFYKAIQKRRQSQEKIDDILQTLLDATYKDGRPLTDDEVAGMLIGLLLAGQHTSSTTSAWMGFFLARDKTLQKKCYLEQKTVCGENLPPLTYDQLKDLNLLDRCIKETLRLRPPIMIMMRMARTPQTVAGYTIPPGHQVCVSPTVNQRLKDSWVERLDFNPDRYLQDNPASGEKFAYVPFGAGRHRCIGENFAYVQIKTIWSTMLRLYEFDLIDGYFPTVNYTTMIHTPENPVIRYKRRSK
Experiment: Single-turnover rapid-quench kinetics of [3-3H]-dihydrolanosterol oxidation (radio-HPLC)
Format: biochemical
Parameters: made in house; host or cells: Escherichia coli
Settings: time 0.4 s
quantity-kind: concentration in single-turnover reaction (µM)

compound="CC(C)CCCC(C)[C@H]1CC[C@@]2(C)C3=C(CC[C@]12C)[C@@]1(C)CC[C@H](O)C(C)(C)C1CC3 (stereo partly shown) [dihydrolanosterol, 24,25-dihydrolanosterol]" assay_system="human P450 51A1 (Homo sapiens)" value_reported=1.9166
compound="CC(C)CCC[C@@H](C)[C@H]1CC=C2C3=C(CC[C@@]21C)[C@@]1(C)CC[C@H](O)C(C)(C)[C@@H]1CC3 [dihydro FF-MAS, 24,25-dihydro FF-MAS]" assay_system="human P450 51A1 (Homo sapiens)" value_reported=1.2019
compound="CC(C)CCCC(C)[C@H]1CC[C@@]2(CO)C3=C(CC[C@]12C)[C@@]1(C)CC[C@H](O)C(C)(C)C1CC3 (stereo partly drawn) [14α-CH2OH dihydrolanosterol, 24,25-dihydro-14α-CH2OH lanosterol]" assay_system="human P450 51A1 (Homo sapiens)" value_reported=1.9978
compound="CC(C)CCCC(C)[C@H]1CC[C@@]2(C=O)C3=C(CC[C@]12C)[C@@]1(C)CC[C@H](O)C(C)(C)C1CC3 (stereo partly drawn) [14α-CHO dihydrolanosterol, 24,25-dihydro-14α-formyl lanosterol]" assay_system="human P450 51A1 (Homo sapiens)" value_reported=1.8837
